Molecular target: T1, HIS-tagged B Lymphocyte Stimulator (human, UniProt Q9Y275 71-285)
T1 construct: Expressed in E. coli; also called HIS-B Lymphocyte Stimulator; histidine-tagged B Lymphocyte Stimulator; not shown: histidine tag from the pQE9 vector
T1 sequence (Q9Y275 71-285): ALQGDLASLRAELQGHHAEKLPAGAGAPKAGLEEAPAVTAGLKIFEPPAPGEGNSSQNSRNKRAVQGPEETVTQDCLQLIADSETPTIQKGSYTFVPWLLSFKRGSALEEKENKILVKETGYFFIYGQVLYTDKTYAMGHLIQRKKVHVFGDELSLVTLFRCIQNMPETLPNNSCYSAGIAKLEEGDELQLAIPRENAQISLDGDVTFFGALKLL
Assay: BIAcore, purified scFv over low density HIS-BLyS surface
Protocol: The chip containing the low density HIS-B Lymphocyte Stimulator surface was inserted into the BIAcore. […] The dilution series was then injected sequentially over the blank control (flow cell 1) and low density HIS-B Lymphocyte Stimulator surface (flow cell 2) using the following program: […]
readoutLabel: pKd
In simple prose, pKd is minus the logarithm base ten of a concentration in moles per litre.

Suppose we examine the binder I079F11 (scFv) scFv: QVQLVQSGGGLVKPGGSLRLSCAASGFTFSSYSMNWVRQAPGKGLEWVAVVSSDGGNKYYADSVKGRFTISRDNSKNTVYLQMNSLRADDTAVYYCAKTGSGFDYWGRGTLVTVSSGGGGSGGGGSGGGGSDIQMTQSPSTLSASIGDRVTITCRASEGIYHWLAWYQQKPGKAPKLLIYKASSLASGAPSRFSGSGSGTDFTLTISSLQPDDFATYYCQQYSNYPLTFGGGTKLEIKR ; what pKd value has been reported?
8.30
